Where do these numbers come from? They come from paper PMC9291769.

- MEASUREMENT_TARGET: IDO1 (Homo sapiens, UniProt P14902)
- Sequence (P14902 whole entry): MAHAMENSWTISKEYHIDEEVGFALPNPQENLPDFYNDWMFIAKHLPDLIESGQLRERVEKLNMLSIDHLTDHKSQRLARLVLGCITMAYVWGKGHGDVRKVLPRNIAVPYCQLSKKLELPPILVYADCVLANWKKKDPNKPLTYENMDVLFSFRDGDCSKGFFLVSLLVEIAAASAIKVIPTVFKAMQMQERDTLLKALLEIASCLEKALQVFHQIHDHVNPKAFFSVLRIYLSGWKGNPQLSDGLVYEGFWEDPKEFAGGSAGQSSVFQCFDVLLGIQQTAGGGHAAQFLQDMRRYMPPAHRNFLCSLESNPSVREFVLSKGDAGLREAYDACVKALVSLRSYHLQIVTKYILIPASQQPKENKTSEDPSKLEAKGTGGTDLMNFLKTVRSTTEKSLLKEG
- ASSAY_NAME: Cellular IDO1 inhibition
- Format: cell-based
- TEST_PARAMETERS: IC50±SD [μM], A375 cell line, IFN-γ, 48 h
PROPERTY: IC50 (µM)

Would you please look over these solved cases?
[[record]]
molecule = "Cc1ccc(-c2ccc(F)c(C(=O)NCc3nnc4ccc(C(F)(F)F)cn34)c2)cc1C [Compound 24]"
measurement_target = "IDO1 (Homo sapiens, UniProt P14902)"
meas_value = 2

[[record]]
molecule = "O=C(NCc1nnc2ccc3ccccc3n12)c1cccc2cn[nH]c12 [Compound 37]"
measurement_target = "IDO1 (Homo sapiens, UniProt P14902)"
meas_value = 6.9

[[record]]
molecule = "COc1ccc(-c2ccc(F)c(C(=O)NCc3nnc4ccc(C(F)(F)F)cn34)c2)cc1OC [Compound 25]"
measurement_target = "IDO1 (Homo sapiens, UniProt P14902)"
meas_value = 1.4


(P) COc1ccc(-c2ccc(F)c(C(=O)NCc3nnc4ccc5ccccc5n34)c2)cc1 [Compound 40]
(Q) COc1cc(C)c(C(=O)NCc2nnc3ccc4ccccc4n23)c(C)c1 [Compound 39]
(R) O=C(NCc1nnc2ccc3ccccc3n12)c1ccc(O)c(Br)c1 [Compound 38]
INPUT: # sort list by recorded IC50, greatest to least Your task in answering is to list the labels in the requested order.
OUTPUT: P, Q, R
(P: 3.4 µM, Q: 1.8 µM, R: 0.9 µM)

----------
- ASSAY_NAME: MTT cell viability assay
- Assay type: cell-based, human
- TEST_PARAMETERS: human, A375 cells, Cell viability [%] @ 10 μM±SD
PROPERTY: viability at 48 h, 10 μM (%)
Your answer should be a plain number; it is taken to be in %.

Take a look at these entries with their results.
[[record]]
chemical_structure = "O=C(NCc1nnc2ccc(Cl)cn12)c1cccc2cn[nH]c12"
property = "viability at 48 h, 10 μM"
meas_value = 98

[[record]]
chemical_structure = "Cc1ccc(Br)c(C)c1C(=O)NCc1nnc2ccc(C(F)(F)F)cn12"
property = "viability at 48 h, 10 μM"
meas_value = 100

[[record]]
chemical_structure = "COc1ccc(-c2ccc(F)c(C(=O)NCc3nnc4ccc5ccccc5n34)c2)cc1"
property = "viability at 48 h, 10 μM"
meas_value = 97

[[record]]
chemical_structure = "O=C(NCc1nnc2ccc3ccccc3n12)c1ccc(O)c(Br)c1"
property = "viability at 48 h, 10 μM"
meas_value = 95

[[record]]
chemical_structure = "O=C(NCc1nnc2ccc(C(F)(F)F)cn12)c1cccc2cn[nH]c12"
property = "viability at 48 h, 10 μM"
meas_value = 91


INPUT: Please report viability at 48 h, 10 μM for the following compound: COc1ccc(-c2ccc(F)c(C(=O)NCc3nnc4ccc(Cl)cn34)c2)cc1OC
OUTPUT: 98

INPUT: Look up and state reported viability at 48 h, 10 μM for O=C(NCc1nnc2ccc3ccccc3n12)c1cccc2cn[nH]c12
OUTPUT: 100

----------
- ASSAY_NAME: MTT cell viability assay
- Assay type: cell-based, human
- TEST_PARAMETERS: human, A375 cells, Cell viability [%] @ 10 μM±SD
PROPERTY: viability at 48 h, 10 μM (%)
Use % as the unit, but write only the number.

// below: answered compounds
[[record]]
chemical_structure = "O=C(NCc1cccc2ccccc12)c1cccc2cn[nH]c12"
property = "viability at 48 h, 10 μM"
meas_value = 99

[[record]]
chemical_structure = "COc1ccc(-c2ccc(F)c(C(=O)NCc3nnc4ccc(C(F)(F)F)cn34)c2)cc1OC"
property = "viability at 48 h, 10 μM"
meas_value = 94

[[record]]
chemical_structure = "COc1cc(C)c(C(=O)NCc2nnc3ccc(C(F)(F)F)cn23)c(C)c1"
property = "viability at 48 h, 10 μM"
meas_value = 89


INPUT: Identify measured viability at 48 h, 10 μM associated with Cc1ccc(-c2cccc(C(=O)NCc3nnc4ccc(C(F)(F)F)cn34)c2)cc1
OUTPUT: 93

----------
compounds and their reported viability at 48 h, 10 μM
- ASSAY_NAME: MTT cell viability assay
- Type: cell-based, human
- TEST_PARAMETERS: human, A375 cells, Cell viability [%] @ 10 μM±SD
Write the answer as a number in %, unit excluded.

Recorded results for 8 compounds are shown here.
[[record]]
compound = "O=C(NCc1nnc2ccc(C(F)(F)F)cn12)c1cc(-c2ccc(F)cc2)ccc1F [Compound 18]"
unit_annotation = "%"
meas_value = 88

[[record]]
compound = "O=C(NCc1nnc2ccc(C(F)(F)F)cn12)c1cc(Br)c(O)cc1O [Compound 13]"
unit_annotation = "%"
meas_value = 94

[[record]]
compound = "Cc1ccccc1-c1ccc(F)c(C(=O)NCc2nnc3ccc(C(F)(F)F)cn23)c1 [Compound 20]"
unit_annotation = "%"
meas_value = 100

[[record]]
compound = "O=C(NCc1nnc2ccccn12)c1cccc2cn[nH]c12 [Compound 42]"
unit_annotation = "%"
meas_value = 100

[[record]]
compound = "O=C(NCc1nnc2ccc(C(F)(F)F)cn12)c1c(F)ccc(Cl)c1Cl [Compound 15]"
unit_annotation = "%"
meas_value = 100

[[record]]
compound = "O=C(NCc1nnc2ccc(C(F)(F)F)cn12)c1ccc(O)c(Br)c1 [Compound 12]"
unit_annotation = "%"
meas_value = 92

[[record]]
compound = "N#Cc1ccc(-c2ccc(F)c(C(=O)NCc3nnc4ccc(C(F)(F)F)cn34)c2)cc1 [Compound 19]"
unit_annotation = "%"
meas_value = 97

[[record]]
compound = "Cc1ccc(-c2ccc(F)c(C(=O)NCc3nnc4ccc(C(F)(F)F)cn34)c2)cc1C [Compound 24]"
unit_annotation = "%"
meas_value = 95


INPUT: Output measured viability at 48 h, 10 μM for this item: COc1cc(F)c(C(=O)NCc2nnc3ccc(C(F)(F)F)cn23)c(F)c1 [Compound 16]
OUTPUT: 100

INPUT: # return recorded viability at 48 h, 10 μM for input COc1ccc(-c2ccc(F)c(C(=O)NCc3nnc4ccc(C(F)(F)F)cn34)c2)cc1 [Compound 21]
OUTPUT: 78

INPUT: For the compound COc1cc(C)c(C(=O)NCc2nnc3ccc4ccccc4n23)c(C)c1 [Compound 39] , give its measured viability at 48 h, 10 μM value.
OUTPUT: 94
